Tested on: epidermal proliferation in minipigs
Assay: animal or person
Conditions: minipig, in vivo, po, 10080 min
QUANTITY_KIND: Calcemic dose (mg/kg)
Return type: number; implicit unit mg/kg.

Task: Look up and report measured Calcemic dose for this entry: C=C1/C(=C\C=C\CCCC(C)(C)CCCC(O)(C(F)(F)F)C(F)(F)F)C[C@@H](O)C[C@@H]1O [F]
Output: 0.015

Task: Look up and report measured Calcemic dose for this entry: C=C1/C(=C\C=C\CCCC(C)(C)C/C=C\C(O)(C(F)(F)F)C(F)(F)F)C[C@@H](O)C[C@@H]1O [B]
Output: 2

Task: Look up and report measured Calcemic dose for this entry: C=C1/C(=C\C=C2/CCC[C@]3(C)[C@@H]([C@H](C)CCCC(C)(C)O)CC[C@@H]23)C[C@@H](O)C[C@@H]1O [Calcitriol, reference compound]
Output: 0.003

Task: Look up and report measured Calcemic dose for this entry: CC(C)(CC#CC(O)(C(F)(F)F)C(F)(F)F)CCC/C=C/C=C1C[C@@H](O)C[C@H](O)C1 [I]
Output: 0.2

Task: Look up and report measured Calcemic dose for this entry: CC(C)(C/C=C\C(O)(C(F)(F)F)C(F)(F)F)CCC/C=C/C=C1C[C@@H](O)C[C@H](O)C1 [A]
Output: 5

Values compiled from patent US6184422A.
